assay: reduced viability of SK-BR-3 breast cancer cells – cell-based, 24 h, human, pilot screen (AID 572); details: SK-BR-3 viability, CellTiter-Glo luminescence, at 10 µM, active compounds read low;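 note: compound exposure lasted between 18 and 24 h rather than exactly 24 h; 100% = carrier-treated control wells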

| compound | viability (%) |
| --- | --- |
| CCCCC(NS(=O)(=O)c1ccc(OC)cc1)C(=O)O (stereo not drawn) | 110 |
| Cc1oc(-c2cccc(Cl)c2)nc1CN1CCC(C(=O)N2CCN(c3ccccc3F)CC2)CC1 | 73 |
| COc1ccc(NC(=O)c2cnc3n(c2=O)CCS3)cc1OC | 112 |
| CCC(Oc1ccccc1)C(=O)Nc1ccccc1OC (stereo not drawn) | 86 |
| CN(C1CCCCC1)S(=O)(=O)c1ccc(S(=O)(=O)N2CCN(CCC#N)CC2)cc1 | 89.5 |
| Cc1ccccc1-n1c(Cn2c(=O)sc3ccccc32)nnc1SCC(N)=O | 96.5 |
| CC(=O)N1c2c(cc(Br)cc2S(=O)(=O)NCC2COc3ccccc3O2)CC1C (stereo not drawn) | 97.5 |
| CNC(=O)c1ccsc1NC(=O)CN1C(=O)CCC1=O | 90 |
| O=C(CS(=O)(=O)Cc1ccccc1)Nc1nc2ccccc2s1 | 104 |
| Cc1cc(C)nc(NC2=NCC(=O)N2c2ccccc2Br)n1 | 93 |
| Cc1c(C(=O)OCCOC(C)C)[nH]c2c1C(=O)CC(c1ccco1)C2 (stereo not drawn) | 81 |
| CCOc1cccc(-c2nnc3n2N=C(c2cc(OC)ccc2OC)CS3)c1 | 104 |
| Cn1c(=O)c(=O)n(C)c2cc(S(=O)(=O)CCC(=O)N3CCOCC3)ccc21 | 88.5 |

###

assay: doxorubicin toxicity protection in MRP-1 cells – H69AR cells, CellTiter-Glo, duplicate, MRP-1 activator project, pilot screen (AID 807); conditions: H69AR viability with doxorubicin, CellTiter-Glo luminescence; at 10 µM; active compounds read high;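 note: compound pretreatment 18-22 h then 72 h combined with doxorubicin; 0% = doxorubicin alone and 100% = vehicle without doxorubicin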
Known viability increase of a selection of compounds
test readout: viability increase (%)

| compound | test readout | observed result |
| --- | --- | --- |
| COCCN(CCOC)c1ncnc2c1cnn2-c1ccccc1 | viability increase | 1.43 |
| Cc1noc(C)c1S(=O)(=O)N1CCN(Cc2ccc3c(c2)OCO3)CC1 | viability increase | -0.42 |
| O=C1c2ccccc2C(Nc2ccc(-c3nc4ccccc4[nH]3)cc2)N1Cc1ccco1 (stereo unspecified) | viability increase | -5.99 |
| CCOc1ccc(C2CC(c3ccc(CC)cc3)n3nc(N)nc3N2)cc1 (stereo unspecified) | viability increase | 2.68 |
| CC(C)C(NS(=O)(=O)c1ccc2c(c1)oc(=O)n2C)C(=O)N1CCN(Cc2ccccc2)CC1 (stereo unspecified) | viability increase | -3.99 |
| CCOC(=O)C1CCN(C(=O)CN(c2ccc(OC)cc2)S(=O)(=O)c2c(C)noc2C)CC1 | viability increase | -2.59 |
| CCOC(=O)N1CCN(Cc2nc3c(c(=O)n(C)c(=O)n3C)n2Cc2ccc(F)cc2)CC1 | viability increase | -3.14 |
| COc1cc(C2N3CC4(C)CN2CC(C)(C3)C4)ccc1O (stereo unspecified) | viability increase | 0.39 |
| CCOC(=O)N1CCC(N2C(=O)c3ccccc3C2Nc2cc(OC)c(OC)c(OC)c2)CC1 (stereo unspecified) | viability increase | -4.12 |
| CCn1c(SCC(=O)Nc2cccc(C)c2)nc2c(c1=O)SC(C)C2 (stereo unspecified) | viability increase | -3.09 |
| Cc1ccc2oc(=O)c3cnn(CC(=O)NCCC(C)C)c3c2c1 | viability increase | -1.72 |
| CCCOC(=O)c1ccc(NC(=O)c2ccoc2C)cc1 | viability increase | 0.94 |
| Brc1ccc2ncnc(Nc3ccc(N4CCOCC4)cc3)c2c1 | viability increase | -6.53 |
| CCCN(CCC)C(=O)c1c(C)[nH]c(C(=O)OCC)c1C | viability increase | -3.62 |
| Cc1cc2nc(SCCN3CCCC3)[nH]c2cc1C | viability increase | -4.4 |
| CCCCOCCCNC(=O)c1ccc(NC(C)=O)cc1 | viability increase | 0.09 |
| Cc1cccc(-n2ncc3c(N(CCO)CCO)ncnc32)c1 | viability increase | -1.41 |
| O=C(CN1CCOc2ccccc21)NCc1ccco1 | viability increase | -4.51 |
| CCCCN(CCCC)CCn1cnc2c([nH]c3ccc(OC)cc32)c1=O | viability increase | -3.78 |
| CCCCn1c(SCC(=O)OCC)nc2c1c(=O)[nH]c(=O)n2C | viability increase | -2.5 |
| O=C1C(Cl)=C(N2CCCCCC2)C(=O)N1c1ccccc1 | viability increase | -0.88 |
| O=C(c1cc2ccccn2n1)N1CCN(Cc2ccccc2)CC1 | viability increase | -0.74 |
| Cc1ccc(N2C(=O)c3ccc(C(=O)N4CCN(c5ccccc5F)CC4)cc3C2=O)cc1 | viability increase | -1.97 |
| COC(=O)c1cn(C(=O)c2ccc(Br)o2)c2ccccc12 | viability increase | 0.03 |
| CC1Cc2nc(SCC(=O)OCc3ccccc3)n(C)c(=O)c2S1 (stereo unspecified) | viability increase | -3.06 |
| CCOc1ccc(C2CC(c3cccc(OC)c3)Nc3ncnn32)cc1 (stereo unspecified) | viability increase | -0.82 |

###

molecular target: Receptor tyrosine-protein kinase erbB-2 (Homo sapiens) (UniProt P04626); assay: Her2 expression decrease, cell viability multiplex – SKBR3 breast tumor cells, AlphaScreen, ATP viability, primary screen (AID 461); conditions: 18-24 h, at 10 µM, active compounds read low;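 note: lower value means less Her2 protein in the cells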
Sequence (P04626 whole entry, looked up): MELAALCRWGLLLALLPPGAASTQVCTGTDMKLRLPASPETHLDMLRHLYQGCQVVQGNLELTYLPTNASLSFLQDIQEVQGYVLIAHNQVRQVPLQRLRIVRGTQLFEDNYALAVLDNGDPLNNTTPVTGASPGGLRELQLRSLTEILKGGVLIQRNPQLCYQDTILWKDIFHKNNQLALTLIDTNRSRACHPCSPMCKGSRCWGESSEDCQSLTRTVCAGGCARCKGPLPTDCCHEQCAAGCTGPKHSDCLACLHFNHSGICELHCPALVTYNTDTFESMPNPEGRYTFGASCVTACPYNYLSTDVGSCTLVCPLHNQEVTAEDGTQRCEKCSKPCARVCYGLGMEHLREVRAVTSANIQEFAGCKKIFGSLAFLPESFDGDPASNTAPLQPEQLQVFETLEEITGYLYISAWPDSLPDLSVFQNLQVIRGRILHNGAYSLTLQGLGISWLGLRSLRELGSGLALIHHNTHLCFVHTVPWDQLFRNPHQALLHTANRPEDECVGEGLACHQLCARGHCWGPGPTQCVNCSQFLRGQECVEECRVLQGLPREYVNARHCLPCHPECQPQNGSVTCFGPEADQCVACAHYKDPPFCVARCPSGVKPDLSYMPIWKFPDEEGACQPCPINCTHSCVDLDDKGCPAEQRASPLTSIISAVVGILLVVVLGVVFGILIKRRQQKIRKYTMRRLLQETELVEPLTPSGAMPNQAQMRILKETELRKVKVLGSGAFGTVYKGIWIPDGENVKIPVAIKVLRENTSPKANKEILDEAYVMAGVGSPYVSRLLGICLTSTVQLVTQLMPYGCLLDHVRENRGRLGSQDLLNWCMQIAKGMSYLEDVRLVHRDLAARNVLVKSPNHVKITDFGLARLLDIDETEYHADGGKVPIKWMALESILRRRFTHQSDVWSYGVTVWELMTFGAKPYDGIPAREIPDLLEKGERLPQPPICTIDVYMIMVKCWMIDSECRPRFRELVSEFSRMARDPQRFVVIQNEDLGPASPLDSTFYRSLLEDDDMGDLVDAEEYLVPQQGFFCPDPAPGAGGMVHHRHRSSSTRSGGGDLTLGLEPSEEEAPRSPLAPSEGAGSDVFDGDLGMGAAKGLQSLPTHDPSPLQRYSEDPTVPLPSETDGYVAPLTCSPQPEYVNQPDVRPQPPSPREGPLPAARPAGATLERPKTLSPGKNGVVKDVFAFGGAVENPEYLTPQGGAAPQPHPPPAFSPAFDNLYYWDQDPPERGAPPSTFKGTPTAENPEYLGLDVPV
Known Her2 level of a selection of compounds

| compound | Her2 level [%] |
| --- | --- |
| CCOC(=O)CN(C(=O)c1ccccc1)c1ccccc1C | 108 |
| Cc1ccc2oc(=O)c3cnn(CC(=O)NCCC(C)C)c3c2c1 | 102 |
| Cc1c(NC(=O)c2ccc(CN3CCc4ccccc4C3)cc2)c(=O)n(-c2ccccc2)n1C | 109 |
| CCOc1ccc(Cn2nnc(C(=O)NCc3ccc(OC)cc3)c2N)cc1 | 102 |
| CC(CCc1ccccc1)NC(=O)C1CCCN(c2nnc(-n3cccc3)s2)C1 (stereo not given) | 86.5 |
| CCOc1cccc(OCCCCn2ccnc2)c1 | 75.5 |
| CCCc1nnc2n1N=C(c1ccc(-c3cc(Cl)ccc3Cl)o1)CS2 | 94 |
| CC1CCCC(N2CCN(C(=O)c3ccc(F)cc3)CC2)C1 (stereo not given) | 109 |
| O=C(Nc1cccnc1)Nc1ccccn1 | 100 |
| CCC(=O)N1CCN(c2nc(-c3ccccc3)c3c(c2C#N)CCCC3)CC1 | 93 |
| CCn1cc(C(=O)NCC2CCCO2)c(=O)c2cc(S(=O)(=O)N(C)C3CCCCC3)ccc21 (stereo not given) | 93.5 |
| C=CCn1c(SCc2cccc(C#N)c2)nnc1-c1ccccc1O | 102 |
| CCc1nn(CC(=O)NCCCN2CCc3ccccc3C2)c(=O)c2cc3sccc3n12 | 86.5 |
| c1ccc(-c2nnc(CSc3nncs3)o2)cc1 | 86.5 |
| CC(=O)Nc1ccc(S(=O)(=O)N2CCN(C(=O)CCC3CCCC3)CC2)cc1 | 98.5 |
| O=S(=O)(c1ccc(F)cc1)N1CCC(N2CCCC2)CC1 | 96 |
| CCC(C)(C(=O)NC1CCCC1)N(Cc1cccs1)C(C)=O (stereo not given) | 83.5 |
| O=C(O)c1ccccc1S(=O)(=O)NCC(O)COc1ccc(Br)cc1 (stereo not given) | 84.5 |
| CCCSc1nc2c(cnn2-c2ccc(C)cc2)c(=O)[nH]1 | 99 |
| COc1cccc(C2CC(c3ccc(F)cc3)Nc3nc(N)nn32)c1 (stereo not given) | 106 |
| COc1cccc(-c2nc(CS(=O)(=O)CC(=O)NCc3ccc(Cl)cc3)c(C)o2)c1 | 71 |
| CNC(=O)c1ccccc1NC(=O)c1c(O)c2c([nH]c1=O)CCCC2 | 79 |
| COc1cc(C2NC(=O)NC(C)=C2C(=O)OCC2CCCO2)ccc1O (stereo not given) | 86.5 |
| CC1CN(c2ccc(Oc3ccccc3)cc2)c2nc3c(c(=O)n(CC(N)=O)c(=O)n3C)n2C1 (stereo not given) | 101 |
| COC(=O)CN1C(=O)C(O)(CC(=O)c2ccc(C)cc2)c2cc(Br)ccc21 (stereo not given) | 96.5 |

###

assay: viability of PTEN-null HCT116 cells – cell-based, HCT116 clonal line, CellTiter-Glo, pilot screen (AID 824); conditions: HCT116 PTEN-deleted viability, 60 h, at 10 µM, active compounds read low;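 note: 0% = 20 µM Hyamine control and 100% = vehicle cell control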
Results filed as inconclusive are left out. The source made the active and inactive calls.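 How the source made its calls: active means viability at or below 27.92% in each of two runs, the all-compound median minus 4 SD; inconclusive means no clear call, values can overlap the other calls; inactive means the rest.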
Known viability of a selection of compounds
test readout: viability

| compound | observed result |
| --- | --- |
| C(=N\n1cnnc1)/c1cccc(OCCOc2ccccc2)c1 | 94.9% (inactive) |
| Cc1cc2ccccc2n1CCNC(=O)C1CC1 | 101% (inactive) |
| Cc1sc2nc(SCC(=O)NCCO)n(C)c(=O)c2c1C | 94.6% (inactive) |
| CCn1c(SCC(=O)Nc2cc(C)ccc2C)nc2c(c1=O)SC(C)C2 (stereo not given) | 91.5% (inactive) |
| COc1ccc(N2C(=O)CC(c3ccc(OC(C)C)cc3)C2=O)cc1 (stereo not given) | 104% (inactive) |
| COc1ccc(-n2c(SCC(=O)Nc3ccc4c(c3)OCO4)nc3c(c2=O)SCC3)cc1 | 81.2% (inactive) |
| O=c1oc2ccccc2cc1NCc1ccccc1O | 91.1% (inactive) |
| CC(C)c1ncc(C(O)c2cccc3ccccc23)n1C (stereo not given) | 79.1% (inactive) |
| Cc1noc(/C=C/N(C)C)c1S(=O)(=O)N1CCCC(C(=O)NC2CCCCC2)C1 (stereo not given) | 88.4% (inactive) |
| CC(C)c1ccc(OC(=O)NCCO)cc1 | 104% (inactive) |
| CC(OC(=O)C1CC=CCC1C(N)=O)C(Cl)=C(Cl)Cl (stereo not given) | 105% (inactive) |
| O=C(CC1Oc2ccccc2NC1=O)NCCCN1CCOCC1 (stereo not given) | 96.8% (inactive) |
| CCC(C)C(NC(=O)C1CCC(C)CC1)C(=O)NCc1cccnc1 (stereo not given) | 87.7% (inactive) |
| O=S(=O)(NC1=NCCCCC1)c1cccs1 | 98.2% (inactive) |
| COCCCNc1nc2c(c(=O)[nH]c(=O)n2C)n1CC(O)COc1ccccc1C (stereo not given) | 101% (inactive) |
| CC1Cc2nc(SCC(=O)OCc3ccccc3)n(C)c(=O)c2S1 (stereo not given) | 93.8% (inactive) |
| N#CCc1nc2n(n1)Cc1ccccc1-2 | 96.8% (inactive) |
| N#Cc1ccc(-c2csc(NC(=O)C3CC3)n2)cc1 | 88.9% (inactive) |
| CCCN1CCN(C(=O)c2cn(CC(C)C)c(=O)c3cc(OC)c(OC)cc23)CC1 | 88.4% (inactive) |
| CCn1c(SCC(=O)N2CCOCC2)nc(O)cc1=O | 103% (inactive) |
| Cc1ccc(-n2c3c(cc(C(=O)O)c2=O)C(=O)CC(C)(C)C3)cc1 | 100% (inactive) |
| O=S(=O)(c1cccc2cccnc12)N(CCO)CCO | 101% (inactive) |
| COc1ccc(OC)c2[nH]c(=O)c(CCNC(=O)C(C)C)cc12 | 103% (inactive) |
| Cc1ccc(S(=O)(=O)NCc2nc3ccccc3[nH]2)cc1 | 97.8% (inactive) |
| Cc1cccc(CN2CCC(CNC(=O)C3CCCN(S(=O)(=O)c4cnc[nH]4)C3)CC2)c1 (stereo not given) | 106% (inactive) |
| CCC1CCCCN1Cc1ccc(OC)c(OC)c1 (stereo not given) | 96.9% (inactive) |
| CC(C)(NC(=O)N1CCCC1)c1cccc(C(C)(C)NC(=O)N2CCCC2)c1 | 97.4% (inactive) |
| CC(O)Cc1nsc(NC(=O)c2cccs2)n1 (stereo not given) | 100% (inactive) |
| N#CCCN1CCN(S(=O)(=O)c2ccc(S(=O)(=O)NC3CCCCC3)cc2)CC1 | 97.8% (inactive) |
| O=C(c1ccc(=O)[nH]c1)N(Cc1ccco1)C1(C(=O)NC2CCCC2)CCCCC1 | 100% (inactive) |

Where these numbers come from: PubChem BioAssay
